# IC50 per entry for BChE (Homo sapiens, UniProt P06276)
Record the value in µM, omitting the unit from your answer.

Q: Give its IC50 value. Item: NC(=O)c1cc(/C=C/c2ccccc2)ccc1N [Compound 2a, (E)-2-Amino-5-styrylbenzamide]
Ans: 4.7

Q: What do we get for `Cc1ccc(S(=O)(=O)Nc2ccc(/C=C/c3ccc(F)cc3)cc2C(N)=O)cc1` ?
Ans: 8.1

Q: Now consider `COc1ccc(/C=C/c2ccc(NS(=O)(=O)c3ccc(C)cc3)c(C(N)=O)c2)cc1` .
Ans: 13.3

Q: Now the compound COc1ccc(/C=C/c2ccc(N)c(C(N)=O)c2)cc1 [Compound 2d, (E)-2-Amino-5-(4-methoxystyryl)benzamide]
Ans: 14.6

Q: Please do the same for NC(=O)c1cc(/C=C/c2ccc(Cl)cc2)ccc1N [Compound 2c, (E)-2-Amino-5-(4-chlorostyryl)benzamide] as well.
Ans: 18.9

Q: Another compound to look at: `Cc1ccc(S(=O)(=O)Nc2ccc(/C=C/c3ccc(Cl)cc3)cc2C(N)=O)cc1`
Ans: 6.9

Q: `Cc1ccc(S(=O)(=O)Nc2ccc(/C=C/c3ccccc3)cc2C(N)=O)cc1` ?
Ans: 10.8

Q: Moving on to NC(=O)c1cc(/C=C/c2ccc(F)cc2)ccc1N [Compound 2b, (E)-2-Amino-5-(4-fluorostyryl)benzamide]
Ans: 19.7

* * *

protocolSummary: in vitro
testSettings: human
Procedure: The cytotoxicity activity of the compounds was evaluated using the 3-(4,5-dimethylthiazol-2-yl)-2,5-diphenyltetrazolium bromide (MTT) assay following a modification of a method by Mosmann. Normal monkey kidney cells (Vero cells) and adeno-carcinomic human epithelial cells (A549 cells) were maintained in Dulbecco’s modified Eagle’s medium (DMEM, Gibco) supplemented with 10% fetal bovine serum (FBS) and 1% penicillin/streptomycin in culture flasks and incubated at 37 °C in 5% CO2. […]
measuredProperty: IC50 at 24 h (µM)
Kindly provide the numeric value in µM only, without the unit symbol.

Q: Entry under review: COc1cccc2c1C(=O)c1c(O)c3c(c(O)c1C2=O)C[C@@](O)(C(=O)CO)C[C@@H]3O[C@H]1C[C@H](N)[C@H](O)[C@H](C)O1 [Doxorubicin, reference compound] . Reported IC50 at 24 h?
Ans: 1.14

* * *

For each entry below, report its IC50 value.
protocolSummary: Nitric oxide radical scavenging assay (Griess reaction)
testSettings: NO radical scavenging
Experimental: Nitric oxide was generated from sodium nitroprusside and measured by Griess’ reaction following the literature method. The experiment was done in triplicate with ascorbic acid (vitamin C) used as a positive control for the assay. […] Afterward, 300 μL of the Griess reagent (a mixture of 0.2% N-(1-naphthyl)ethylenediamine dihydrochloride and 2% sulfanilamide in […]) was added to each well and absorbance was read at 546 nm using a Varioskan flash microplate spectrophotometer reader.
Report only the number, with the unit µM understood.

Q: Quick one: IC50 for O=C1O[C@H]([C@@H](O)CO)C(O)=C1O [Ascorbic acid, reference compound] ?
Ans: 6.23

Q: Cool, now NC(=O)c1cc(/C=C/c2ccc(Cl)cc2)ccc1N [Compound 2c, (E)-2-Amino-5-(4-chlorostyryl)benzamide]
Ans: 9.3

Q: NC(=O)c1cc(/C=C/c2ccccc2)ccc1N [Compound 2a, (E)-2-Amino-5-styrylbenzamide] ?
Ans: 10.3

Q: Then Cc1ccc(S(=O)(=O)Nc2ccc(/C=C/c3ccccc3)cc2C(N)=O)cc1 [Compound 3a] ?
Ans: 13.1
